- Measured Target: human TLR7 (Homo sapiens)
- Construct: host or cells: HEK-Blue cells
- Sequence (Q9NYK1 27-1049): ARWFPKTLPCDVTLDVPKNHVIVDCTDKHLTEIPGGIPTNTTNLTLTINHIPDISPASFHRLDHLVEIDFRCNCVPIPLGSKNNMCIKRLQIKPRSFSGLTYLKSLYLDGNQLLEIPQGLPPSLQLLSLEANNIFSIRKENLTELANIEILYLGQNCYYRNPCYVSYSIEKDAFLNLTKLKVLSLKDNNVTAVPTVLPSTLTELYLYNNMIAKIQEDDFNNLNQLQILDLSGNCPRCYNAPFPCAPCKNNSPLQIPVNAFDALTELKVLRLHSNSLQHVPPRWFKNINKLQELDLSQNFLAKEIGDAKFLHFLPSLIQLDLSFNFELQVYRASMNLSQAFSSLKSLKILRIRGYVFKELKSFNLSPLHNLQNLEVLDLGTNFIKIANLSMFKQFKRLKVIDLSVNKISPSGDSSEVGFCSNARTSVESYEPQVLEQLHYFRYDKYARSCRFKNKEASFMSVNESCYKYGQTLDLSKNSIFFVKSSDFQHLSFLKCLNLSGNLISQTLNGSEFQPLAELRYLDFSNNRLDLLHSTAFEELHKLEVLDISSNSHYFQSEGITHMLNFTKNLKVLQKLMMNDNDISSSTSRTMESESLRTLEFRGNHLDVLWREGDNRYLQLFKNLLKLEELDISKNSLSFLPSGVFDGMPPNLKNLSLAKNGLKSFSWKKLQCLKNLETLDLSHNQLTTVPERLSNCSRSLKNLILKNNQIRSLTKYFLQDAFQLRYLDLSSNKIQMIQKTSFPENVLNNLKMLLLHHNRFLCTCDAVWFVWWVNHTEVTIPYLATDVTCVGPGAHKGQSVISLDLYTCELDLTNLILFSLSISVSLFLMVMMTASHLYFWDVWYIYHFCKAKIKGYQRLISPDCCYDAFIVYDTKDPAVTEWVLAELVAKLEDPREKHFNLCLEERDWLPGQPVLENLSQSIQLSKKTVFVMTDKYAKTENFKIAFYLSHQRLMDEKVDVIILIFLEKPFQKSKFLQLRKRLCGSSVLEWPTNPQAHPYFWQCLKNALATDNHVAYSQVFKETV
- Assay Notes: TLR7 inhibition reporter assay (HEK-Blue cells, SEAP reporter, gardiquimod stimulation)
- Assay type: cell-based
- Assay Conditions: HEK-Blue cells overexpressing human TLR7, SEAP reporter, gardiquimod 7.5 μM; read-out: TLR7 IC50
So basically: is IC50 under 9 nM? Then Satisfied. Not under? Then Not satisfied.

> print(dat)
                                    molecule  assigned.class
 1  COc1cc(-c2[nH]c3sc(C4CCC(NC5(C)COC5)CC4)nc3c2C(C)C)cn2ncnc12 (single isomer, unassigned) [Example 70]       Satisfied
 2  Cc1c(-c2[nH]c3sc(N4CCNCC4)nc3c2C(C)C)cn(C)c(=O)c1C   Not satisfied
 3  Cc1c(-c2[nH]c3sc(N4C[C@@H](C)N(CC(C)(C)O)C[C@@H]4C)nc3c2C(C)C)cn2ncnc2c1C   Not satisfied
 4  Cc1c(-c2[nH]c3sc(N4CCN(C(=O)CN(C)C)CC4)nc3c2C(C)C)cn2ncnc2c1C       Satisfied
 5  Cc1cc(-c2[nH]c3sc(C4CCN(C(=O)CN(C)C)CC4)nc3c2C(C)C)cn2ncnc12       Satisfied
 6  COc1cc(-c2[nH]c3sc(C4CCC(NC[C@@H](F)C(C)(C)O)CC4)nc3c2C(C)C)cn2ncnc12 (single isomer, unassigned) [Example 91]       Satisfied
 7  Cc1cc(-c2[nH]c3sc(C4CCC(NC56CC(C5)C6)CC4)nc3c2C(C)C)cn2ncnc12 (single isomer, unassigned) [Example 139]       Satisfied
 8  Cc1c(-c2[nH]c3sc(C4CCC(N5CC(O)(C(F)(F)F)C5)CC4)nc3c2C(C)C)cn(C)c(=O)c1C (single isomer, unassigned) [Example 268]   Not satisfied
 9  COc1cc(-c2[nH]c3sc(C4CCC(NC5(C#N)CC5)CC4)nc3c2C(C)C)cn2ncnc12 (centres unmarked) [Example 106]       Satisfied
10  Cc1c(-c2[nH]c3sc(CNCC(N)=O)nc3c2C(C)C)cn2ncnc2c1C   Not satisfied
11  Cc1c(-c2[nH]c3sc(C(=O)N4CC(N(C)C)C4)nc3c2C(C)C)cn2ncnc2c1C   Not satisfied
12  Cc1c(-c2[nH]c3sc(C4CCC(N5CCNC(=O)C5)CC4)nc3c2C(C)C)cn2ncnc2c1C (single isomer, unassigned) [Example 221]       Satisfied
13  CCC(CC)CN1CCC(c2nc3c(C(C)C)c(-c4cn5ncnc5c(C)c4C)[nH]c3s2)CC1       Satisfied
